Origin of measurements: ChEMBL document CHEMBL2321810

Target: Sodium channel protein type 9 subunit alpha (Homo sapiens)
Test: cell-based
pIC50: −log10 of the molar value.
metric: pIC50

CC(C)Oc1cc(-c2cc(F)ccc2Oc2ccc(S(=O)(=O)Nc3nccs3)cc2C#N)n(C)n1 6.00
N#Cc1cc(S(=O)(=O)Nc2ncns2)cc(F)c1Oc1ccc(F)cc1-c1cn[nH]c1 6.13

[1] N#Cc1cc(S(=O)(=O)Nc2ncns2)ccc1Oc1nnccc1-c1ccccc1
[2] Cc1cccc(-c2ccc(OC(C)C)cc2)c1Oc1ccc(S(=O)(=O)Nc2ncns2)cc1C#N
[3] N#Cc1cc(S(=O)(=O)Nc2ncc(Cl)s2)ccc1Oc1ccc(Cl)cc1-c1ccnc(N)c1
[4] Cn1nccc1-c1cc(Cl)ccc1Oc1ccc(S(=O)(=O)Nc2ccon2)cc1C#N
[5] Nc1cc(-c2cc(Cl)ccc2Oc2cc(F)c(S(=O)(=O)Nc3cscn3)cc2F)ccn1
[in] Please produce an ascending ranking of these molecules based on pIC50. # list labels per requested ordering
[out] 1, 4, 2, 3, 5
(1: 5.00, 4: 5.82, 2: 6.08, 3: 7.01, 5: 7.72)

[I] Cc1cnc(NS(=O)(=O)c2ccc(Oc3ccc(Cl)cc3-c3ccnn3C)c(C#N)c2)cn1
[II] COC(=O)c1cc(Oc2ccc(S(=O)(=O)Nc3nccs3)cc2C#N)ccc1-n1cc(Cl)cn1
[in] For I and II , which recorded pIC50 is lower? Answer by quoting the chosen item's label.
[out] I

====

Biological target: Sodium channel protein type 9 subunit alpha (Homo sapiens, UniProt Q15858)
Sequence (Q15858 whole entry): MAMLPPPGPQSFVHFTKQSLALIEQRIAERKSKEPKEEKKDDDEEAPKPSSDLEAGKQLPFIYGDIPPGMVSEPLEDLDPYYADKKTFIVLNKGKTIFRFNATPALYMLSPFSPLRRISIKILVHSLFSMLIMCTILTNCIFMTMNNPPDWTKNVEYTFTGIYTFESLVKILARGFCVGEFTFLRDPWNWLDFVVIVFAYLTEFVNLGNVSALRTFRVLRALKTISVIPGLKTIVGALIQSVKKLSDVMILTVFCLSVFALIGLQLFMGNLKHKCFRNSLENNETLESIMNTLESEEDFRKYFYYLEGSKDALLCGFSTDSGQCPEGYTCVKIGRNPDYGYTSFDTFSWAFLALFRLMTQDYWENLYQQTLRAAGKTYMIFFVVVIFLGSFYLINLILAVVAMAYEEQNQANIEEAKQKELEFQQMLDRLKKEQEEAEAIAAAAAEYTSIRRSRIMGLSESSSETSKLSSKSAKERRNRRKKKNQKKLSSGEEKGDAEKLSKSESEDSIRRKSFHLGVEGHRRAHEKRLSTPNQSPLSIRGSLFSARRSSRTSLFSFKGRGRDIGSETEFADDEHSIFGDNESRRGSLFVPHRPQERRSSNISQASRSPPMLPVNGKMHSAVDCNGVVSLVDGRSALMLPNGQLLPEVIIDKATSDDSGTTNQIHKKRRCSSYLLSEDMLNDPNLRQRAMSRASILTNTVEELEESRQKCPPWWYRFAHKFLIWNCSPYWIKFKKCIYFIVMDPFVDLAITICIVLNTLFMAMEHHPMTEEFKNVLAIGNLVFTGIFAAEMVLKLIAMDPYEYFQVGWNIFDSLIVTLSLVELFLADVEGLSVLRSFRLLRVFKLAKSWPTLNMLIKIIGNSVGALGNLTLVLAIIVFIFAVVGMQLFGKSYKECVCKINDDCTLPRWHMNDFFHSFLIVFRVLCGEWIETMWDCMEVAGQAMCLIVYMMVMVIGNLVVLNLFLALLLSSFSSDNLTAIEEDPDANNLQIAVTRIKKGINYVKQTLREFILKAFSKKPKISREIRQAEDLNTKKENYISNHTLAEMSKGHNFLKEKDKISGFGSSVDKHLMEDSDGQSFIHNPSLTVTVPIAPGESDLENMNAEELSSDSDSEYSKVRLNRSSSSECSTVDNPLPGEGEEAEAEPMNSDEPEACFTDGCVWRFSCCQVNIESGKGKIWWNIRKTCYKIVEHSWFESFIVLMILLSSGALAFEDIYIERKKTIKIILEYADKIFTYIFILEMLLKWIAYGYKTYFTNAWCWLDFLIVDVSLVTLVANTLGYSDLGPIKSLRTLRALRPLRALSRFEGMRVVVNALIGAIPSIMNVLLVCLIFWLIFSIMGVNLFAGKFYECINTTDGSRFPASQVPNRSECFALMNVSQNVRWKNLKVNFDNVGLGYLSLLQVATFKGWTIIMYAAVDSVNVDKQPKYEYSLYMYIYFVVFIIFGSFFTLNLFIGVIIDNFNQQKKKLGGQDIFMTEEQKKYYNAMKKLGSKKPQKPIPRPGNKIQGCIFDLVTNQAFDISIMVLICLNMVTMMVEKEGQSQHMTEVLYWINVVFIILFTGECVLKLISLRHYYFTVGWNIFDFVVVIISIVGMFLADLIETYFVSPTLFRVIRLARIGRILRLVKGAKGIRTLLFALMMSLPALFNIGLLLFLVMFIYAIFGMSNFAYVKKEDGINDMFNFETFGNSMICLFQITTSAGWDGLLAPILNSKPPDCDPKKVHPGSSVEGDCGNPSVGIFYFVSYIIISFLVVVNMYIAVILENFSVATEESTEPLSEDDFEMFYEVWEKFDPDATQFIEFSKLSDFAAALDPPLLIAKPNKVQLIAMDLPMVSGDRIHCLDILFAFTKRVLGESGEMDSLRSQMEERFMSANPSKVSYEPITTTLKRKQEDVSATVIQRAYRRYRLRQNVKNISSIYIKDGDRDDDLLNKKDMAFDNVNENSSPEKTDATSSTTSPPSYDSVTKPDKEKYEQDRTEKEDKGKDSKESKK
Assay: cell-based
metric: IC50 (µM)

Use these answered entries as a reference point.
compound	metric	valueUnits	measured
O=S(=O)(Nc1ncc(Cl)s1)c1cc(Cl)c(Oc2ccc(Cl)cc2C2CNC2)cc1F	IC50	µM	0.01
N#Cc1cc(S(=O)(=O)Nc2ccc(F)cn2)ccc1Oc1ccccc1C1CCCCO1 (stereo not given)	IC50	µM	3
N#Cc1cc(S(=O)(=O)Nc2nccs2)ccc1Oc1ccccc1-c1nncn1-c1ccccc1	IC50	µM	10

[1] Cn1nccc1-c1cc(Cl)ccc1Oc1ccc(S(=O)(=O)Nc2cncnc2)cc1C#N
[2] CNc1ncc(Oc2ccc(S(=O)(=O)Nc3ncns3)cc2C#N)c(-c2ccc(F)cc2)n1
[in] For 1 and 2 , which recorded IC50 is lower? Answer by quoting the chosen item's label.
[out] 2

====

Biological target: Sodium channel protein type 9 subunit alpha (Homo sapiens, UniProt Q15858)
Test: cell-based
pIC50: −log10 of the molar value.
metric: pIC50

O=S(=O)(Nc1ncns1)c1cc(F)c(Oc2ccc(Cl)cc2C2CCNCC2)cc1F 8.08

[a] Cc1nnc(-c2ccc(Oc3ccc(S(=O)(=O)Nc4ccc(F)cn4)cc3C#N)cc2)o1
[b] COc1cc(Oc2ccc(S(=O)(=O)Nc3ccc(F)cn3)cc2C#N)ccc1-n1cnc(C)c1
[c] N#Cc1cc(S(=O)(=O)Nc2ncc(Cl)s2)ccc1Oc1ccc(F)cc1-c1cccc(N)n1
[in] Put the entries in order of pIC50, starting with the largest number. # list labels per requested ordering
[out] c, a, b
(c: 8.00, a: 5.52, b: 4.52)

====

Target: Sodium channel protein type 9 subunit alpha (Homo sapiens)
Assay: cell-based
pIC50: −log10 of the molar value.
metric: pIC50

Cn1cnc(-c2cc(Cl)ccc2Oc2ccc(S(=O)(=O)Nc3nccs3)cc2C#N)n1 6.52

[A] N#Cc1cc(S(=O)(=O)Nc2nncs2)ccc1Oc1ccc(OC(F)(F)F)cc1-c1ccnnc1
[B] Cn1cc(-c2ccc(Oc3ccc(S(=O)(=O)Nc4nccs4)cc3C#N)cc2)c(N)n1
[in] Select the item with the higher value of pIC50 from the options A and B listed. Answer by quoting the chosen item's label.
[out] A

[1] Cc1scnc1NS(=O)(=O)c1cc(Cl)c(Oc2ccc(F)cc2-c2ccnn2C)cc1F
[2] CCn1nc(C)c(-c2ccccc2Oc2ccc(S(=O)(=O)Nc3ncns3)cc2C#N)c1C
[in] For 1 and 2 , which recorded pIC50 is lower? Answer by quoting the chosen item's label.
[out] 1
(1: 6.00, 2: 6.52)

[a] N#Cc1cc(S(=O)(=O)Nc2cc(C(F)(F)F)ncn2)ccc1Oc1ccccc1-c1ccccc1
[b] CCn1nc(-c2ccc(Oc3ccc(S(=O)(=O)Nc4nccs4)cc3C#N)c(F)c2)cc1C(F)(F)F
[in] For a and b , which recorded pIC50 is lower? Answer by quoting the chosen item's label.
[out] a

[I] CCOCn1nncc1-c1cc(Cl)ccc1Oc1ccc(S(=O)(=O)Nc2nccs2)cc1C#N
[II] N#Cc1cc(S(=O)(=O)Nc2ncns2)ccc1Oc1ccc(-n2cc(CO)cn2)cc1
[III] N#Cc1cc(S(=O)(=O)Nc2ncns2)ccc1Oc1cccc(Br)c1-c1cn[nH]c1
[IV] CCc1nnc(C)n1-c1ccc(Oc2ccc(S(=O)(=O)Nc3ccc(F)cn3)cc2C#N)cc1
[V] N#Cc1cnc(NS(=O)(=O)c2ccc(Oc3ccccc3-c3ccccc3)c(C#N)c2)nc1
[in] Put the entries in order of pIC50, starting with the largest number. # list labels per requested ordering
[out] III, I, II, IV, V
(III: 8.15, I: 6.52, II: 6.00, IV: 5.52, V: 5.00)
